The reported numbers originate from paper PMC9838217.

Listed sequences paired with reported binding signal
Biological target: SALL4 ZFC4 G921D (HT-SELEX) (Mus musculus, UniProt Q8BX22 870-940, G921D)
Sequence: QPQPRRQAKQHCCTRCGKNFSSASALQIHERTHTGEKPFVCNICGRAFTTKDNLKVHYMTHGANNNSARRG
Test: HT-SELEX; high values mean tight binding
Settings: protein: recombinant; vector His6-GST; dsDNA, one strand shown

{"CHAIN": "CAAATA", "binding signal, fold-change vs cycle 0": 1.55}
{"CHAIN": "TAGTGA", "binding signal, fold-change vs cycle 0": 1.43}
{"CHAIN": "AATTCA", "binding signal, fold-change vs cycle 0": 1.77}
{"CHAIN": "CTTGAC", "binding signal, fold-change vs cycle 0": 0.981}
{"CHAIN": "AGAATA", "binding signal, fold-change vs cycle 0": 1.84}
{"CHAIN": "CAACAC", "binding signal, fold-change vs cycle 0": 0.849}
{"CHAIN": "CACCGC", "binding signal, fold-change vs cycle 0": 0.239}
{"CHAIN": "GAATAC", "binding signal, fold-change vs cycle 0": 1.34}
{"CHAIN": "GAACGC", "binding signal, fold-change vs cycle 0": 0.446}
{"CHAIN": "GTGCGA", "binding signal, fold-change vs cycle 0": 0.4}
{"CHAIN": "GCAACA", "binding signal, fold-change vs cycle 0": 0.72}
{"CHAIN": "ACCGAG", "binding signal, fold-change vs cycle 0": 0.586}

###

Target: SALL4 ZFC4 G921D (HT-SELEX) (Mus musculus, UniProt Q8BX22 870-940, G921D)
Sequence: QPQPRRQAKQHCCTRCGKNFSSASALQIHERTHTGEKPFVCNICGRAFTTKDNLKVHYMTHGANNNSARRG
Assay: HT-SELEX; high values mean tight binding
Conditions: protein: recombinant; vector His6-GST; dsDNA, one strand shown
Listed sequences paired with reported log10 of binding signal
PARAMETER MEASURED: log10 of binding signal (log10 of the value in fold-change vs cycle 0)

{"CHAIN": "CCGTAA", "TARGET": "SALL4 ZFC4 G921D (HT-SELEX) (Mus musculus, UniProt Q8BX22 870-940, G921D)", "MEASURED NUMBER": -0.08}
{"CHAIN": "GTTTCA", "TARGET": "SALL4 ZFC4 G921D (HT-SELEX) (Mus musculus, UniProt Q8BX22 870-940, G921D)", "MEASURED NUMBER": 0.12}
{"CHAIN": "CCGGGC", "TARGET": "SALL4 ZFC4 G921D (HT-SELEX) (Mus musculus, UniProt Q8BX22 870-940, G921D)", "MEASURED NUMBER": -0.82}
{"CHAIN": "ACGTGA", "TARGET": "SALL4 ZFC4 G921D (HT-SELEX) (Mus musculus, UniProt Q8BX22 870-940, G921D)", "MEASURED NUMBER": -0.03}
{"CHAIN": "AATCCA", "TARGET": "SALL4 ZFC4 G921D (HT-SELEX) (Mus musculus, UniProt Q8BX22 870-940, G921D)", "MEASURED NUMBER": 0.14}
{"CHAIN": "AAGCTG", "TARGET": "SALL4 ZFC4 G921D (HT-SELEX) (Mus musculus, UniProt Q8BX22 870-940, G921D)", "MEASURED NUMBER": -0.10}
{"CHAIN": "AAGTGG", "TARGET": "SALL4 ZFC4 G921D (HT-SELEX) (Mus musculus, UniProt Q8BX22 870-940, G921D)", "MEASURED NUMBER": -0.04}
{"CHAIN": "ACTCCT", "TARGET": "SALL4 ZFC4 G921D (HT-SELEX) (Mus musculus, UniProt Q8BX22 870-940, G921D)", "MEASURED NUMBER": 0.06}
{"CHAIN": "AAATAG", "TARGET": "SALL4 ZFC4 G921D (HT-SELEX) (Mus musculus, UniProt Q8BX22 870-940, G921D)", "MEASURED NUMBER": 0.20}
{"CHAIN": "ACTTCT", "TARGET": "SALL4 ZFC4 G921D (HT-SELEX) (Mus musculus, UniProt Q8BX22 870-940, G921D)", "MEASURED NUMBER": 0.16}
{"CHAIN": "AGGCCA", "TARGET": "SALL4 ZFC4 G921D (HT-SELEX) (Mus musculus, UniProt Q8BX22 870-940, G921D)", "MEASURED NUMBER": -0.35}
{"CHAIN": "GATGCA", "TARGET": "SALL4 ZFC4 G921D (HT-SELEX) (Mus musculus, UniProt Q8BX22 870-940, G921D)", "MEASURED NUMBER": -0.07}
{"CHAIN": "AAACTC", "TARGET": "SALL4 ZFC4 G921D (HT-SELEX) (Mus musculus, UniProt Q8BX22 870-940, G921D)", "MEASURED NUMBER": 0.11}
{"CHAIN": "CCCCAC", "TARGET": "SALL4 ZFC4 G921D (HT-SELEX) (Mus musculus, UniProt Q8BX22 870-940, G921D)", "MEASURED NUMBER": -0.43}
{"CHAIN": "CCCCTC", "TARGET": "SALL4 ZFC4 G921D (HT-SELEX) (Mus musculus, UniProt Q8BX22 870-940, G921D)", "MEASURED NUMBER": -0.34}
{"CHAIN": "AATGTG", "TARGET": "SALL4 ZFC4 G921D (HT-SELEX) (Mus musculus, UniProt Q8BX22 870-940, G921D)", "MEASURED NUMBER": 0.10}
{"CHAIN": "AGCCTC", "TARGET": "SALL4 ZFC4 G921D (HT-SELEX) (Mus musculus, UniProt Q8BX22 870-940, G921D)", "MEASURED NUMBER": -0.27}
{"CHAIN": "CTATAG", "TARGET": "SALL4 ZFC4 G921D (HT-SELEX) (Mus musculus, UniProt Q8BX22 870-940, G921D)", "MEASURED NUMBER": 0.13}
{"CHAIN": "ATCCCG", "TARGET": "SALL4 ZFC4 G921D (HT-SELEX) (Mus musculus, UniProt Q8BX22 870-940, G921D)", "MEASURED NUMBER": -0.24}
{"CHAIN": "TTTAAA", "TARGET": "SALL4 ZFC4 G921D (HT-SELEX) (Mus musculus, UniProt Q8BX22 870-940, G921D)", "MEASURED NUMBER": 0.31}
{"CHAIN": "CATTGC", "TARGET": "SALL4 ZFC4 G921D (HT-SELEX) (Mus musculus, UniProt Q8BX22 870-940, G921D)", "MEASURED NUMBER": -0.08}
{"CHAIN": "AAGTGT", "TARGET": "SALL4 ZFC4 G921D (HT-SELEX) (Mus musculus, UniProt Q8BX22 870-940, G921D)", "MEASURED NUMBER": 0.11}
{"CHAIN": "GACTGA", "TARGET": "SALL4 ZFC4 G921D (HT-SELEX) (Mus musculus, UniProt Q8BX22 870-940, G921D)", "MEASURED NUMBER": -0.02}
{"CHAIN": "GTCAAC", "TARGET": "SALL4 ZFC4 G921D (HT-SELEX) (Mus musculus, UniProt Q8BX22 870-940, G921D)", "MEASURED NUMBER": -0.03}
{"CHAIN": "AGCCCA", "TARGET": "SALL4 ZFC4 G921D (HT-SELEX) (Mus musculus, UniProt Q8BX22 870-940, G921D)", "MEASURED NUMBER": -0.33}
{"CHAIN": "CCGGTA", "TARGET": "SALL4 ZFC4 G921D (HT-SELEX) (Mus musculus, UniProt Q8BX22 870-940, G921D)", "MEASURED NUMBER": -0.30}
{"CHAIN": "GCCGCA", "TARGET": "SALL4 ZFC4 G921D (HT-SELEX) (Mus musculus, UniProt Q8BX22 870-940, G921D)", "MEASURED NUMBER": -0.83}
{"CHAIN": "CGAAAG", "TARGET": "SALL4 ZFC4 G921D (HT-SELEX) (Mus musculus, UniProt Q8BX22 870-940, G921D)", "MEASURED NUMBER": -0.10}
{"CHAIN": "TACATA", "TARGET": "SALL4 ZFC4 G921D (HT-SELEX) (Mus musculus, UniProt Q8BX22 870-940, G921D)", "MEASURED NUMBER": 0.25}
{"CHAIN": "CTTCAC", "TARGET": "SALL4 ZFC4 G921D (HT-SELEX) (Mus musculus, UniProt Q8BX22 870-940, G921D)", "MEASURED NUMBER": 0.01}
{"CHAIN": "AAATCA", "TARGET": "SALL4 ZFC4 G921D (HT-SELEX) (Mus musculus, UniProt Q8BX22 870-940, G921D)", "MEASURED NUMBER": 0.23}
{"CHAIN": "GTCCCA", "TARGET": "SALL4 ZFC4 G921D (HT-SELEX) (Mus musculus, UniProt Q8BX22 870-940, G921D)", "MEASURED NUMBER": -0.25}
{"CHAIN": "AGCCAA", "TARGET": "SALL4 ZFC4 G921D (HT-SELEX) (Mus musculus, UniProt Q8BX22 870-940, G921D)", "MEASURED NUMBER": -0.16}
{"CHAIN": "ATTATG", "TARGET": "SALL4 ZFC4 G921D (HT-SELEX) (Mus musculus, UniProt Q8BX22 870-940, G921D)", "MEASURED NUMBER": 0.24}
{"CHAIN": "AACTTA", "TARGET": "SALL4 ZFC4 G921D (HT-SELEX) (Mus musculus, UniProt Q8BX22 870-940, G921D)", "MEASURED NUMBER": 0.28}
{"CHAIN": "CCTACA", "TARGET": "SALL4 ZFC4 G921D (HT-SELEX) (Mus musculus, UniProt Q8BX22 870-940, G921D)", "MEASURED NUMBER": -0.04}
{"CHAIN": "CTGCAA", "TARGET": "SALL4 ZFC4 G921D (HT-SELEX) (Mus musculus, UniProt Q8BX22 870-940, G921D)", "MEASURED NUMBER": -0.14}
{"CHAIN": "AGAGCT", "TARGET": "SALL4 ZFC4 G921D (HT-SELEX) (Mus musculus, UniProt Q8BX22 870-940, G921D)", "MEASURED NUMBER": -0.05}
{"CHAIN": "CCACCC", "TARGET": "SALL4 ZFC4 G921D (HT-SELEX) (Mus musculus, UniProt Q8BX22 870-940, G921D)", "MEASURED NUMBER": -0.40}
{"CHAIN": "ACCTCT", "TARGET": "SALL4 ZFC4 G921D (HT-SELEX) (Mus musculus, UniProt Q8BX22 870-940, G921D)", "MEASURED NUMBER": 0.01}
{"CHAIN": "GAGGCA", "TARGET": "SALL4 ZFC4 G921D (HT-SELEX) (Mus musculus, UniProt Q8BX22 870-940, G921D)", "MEASURED NUMBER": -0.30}
{"CHAIN": "CGCAGA", "TARGET": "SALL4 ZFC4 G921D (HT-SELEX) (Mus musculus, UniProt Q8BX22 870-940, G921D)", "MEASURED NUMBER": -0.42}
{"CHAIN": "GGTTTA", "TARGET": "SALL4 ZFC4 G921D (HT-SELEX) (Mus musculus, UniProt Q8BX22 870-940, G921D)", "MEASURED NUMBER": 0.09}
{"CHAIN": "CGCCGA", "TARGET": "SALL4 ZFC4 G921D (HT-SELEX) (Mus musculus, UniProt Q8BX22 870-940, G921D)", "MEASURED NUMBER": -0.75}
{"CHAIN": "AAAAAC", "TARGET": "SALL4 ZFC4 G921D (HT-SELEX) (Mus musculus, UniProt Q8BX22 870-940, G921D)", "MEASURED NUMBER": 0.15}
{"CHAIN": "GCGCCC", "TARGET": "SALL4 ZFC4 G921D (HT-SELEX) (Mus musculus, UniProt Q8BX22 870-940, G921D)", "MEASURED NUMBER": -0.94}
{"CHAIN": "AGCGCC", "TARGET": "SALL4 ZFC4 G921D (HT-SELEX) (Mus musculus, UniProt Q8BX22 870-940, G921D)", "MEASURED NUMBER": -0.75}
{"CHAIN": "CCACGA", "TARGET": "SALL4 ZFC4 G921D (HT-SELEX) (Mus musculus, UniProt Q8BX22 870-940, G921D)", "MEASURED NUMBER": -0.29}
{"CHAIN": "CAACTA", "TARGET": "SALL4 ZFC4 G921D (HT-SELEX) (Mus musculus, UniProt Q8BX22 870-940, G921D)", "MEASURED NUMBER": 0.11}
